assay: Nuclear factor erythroid 2-related factor 2/antioxidant responsive element (Nrf2/ARE) small molecule agonists: qHTS cell viability counter screen in human keratinocytes (AID 1919968); conditions: KeratinoSens HaCaT ARE cells viability, CellTiter-Fluor, 24 h; series mostly up to 92.4 µM; also: nearly all actives have a fitted effect of over 55% in size
Results filed as inconclusive are left out. Activity calls are given as the source filed them. Calls follow the shape of the dose curve; as a rule, active = well fitted cell-killing curve with a large enough effect in the repeat runs; inconclusive = weak or mixed curves, or effect the other way; inactive = flat fitted curve, though single readings scatter.
Log the outcome using a class from Yes for active, No for inactive

Just curious, what result did COC(=O)/C=C\C(=O)O get here? No

Just curious, what result did O=C(O)Cc1ccc(-c2ccccc2)cc1 get here? No

Just curious, what result did S=c1[nH][nH]c(=S)s1 get here? No

Just curious, what result did O=C(O)c1cc(-c2ccc(F)cc2F)ccc1O get here? No

Just curious, what result did CCN(CC)c1ccc(C(=C2C=CC(=[N+](CC)CC)C=C2)c2ccc(S(=O)(=O)O)cc2S(=O)(=O)[O-])cc1 get here? Yes

Just curious, what result did OCCN(CCO)CCN(CCO)CCO get here? No

Just curious, what result did Cc1cccc(C)c1C get here? No

Just curious, what result did C[C@H]1C[C@H]2[C@@H]3CCC4=CC(=O)C=C[C@]4(C)[C@@]3(F)[C@@H](O)C[C@]2(C)[C@@]1(O)C(=O)COP(=O)(O)O get here? No

Just curious, what result did Cc1cc(C)c(NC(=O)CN(CC(=O)O)CC(=O)O)c(C)c1Br get here? No

Just curious, what result did CCCCC get here? No

Just curious, what result did CN(C)CCCN1c2ccccc2Sc2ccccc21 get here? No

Just curious, what result did Cc1cc(F)ccc1-c1cc(N2CC[C@@H](O)[C@H]2CO)ncc1N(C)C(=O)C(C)(C)c1cc(C(F)(F)F)cc(C(F)(F)F)c1 get here? Yes

Just curious, what result did CCOC(=O)OC(C)OC1=C(C(=O)Nc2ccccn2)N(C)S(=O)(=O)c2ccccc21 (centres undefined) get here? No

Just curious, what result did O=C(O)c1ccccc1Cl get here? No

Just curious, what result did C=COC(=O)C(C)(CC)CCC(C)C (centres undefined) get here? No

Just curious, what result did O[C@@H](COc1cccc2ncccc12)CN1CCN(C2c3ccccc3[C@@H]3[C@H](c4ccccc42)C3(F)F)CC1 (some centres undefined) get here? No

Just curious, what result did CCCc1ccc(O)c(OC)c1 get here? No

Just curious, what result did CCn1nc(Cc2ccccc2)cc1C1CCN(C[C@H]2C[C@H](N(C)[C@@H](C(=O)O)C(C)C)C[C@@H]2c2cccc(F)c2)CC1 get here? No

Just curious, what result did Cc1cc(S(=O)(=O)O)ccc1N=Nc1c(O)ccc2ccccc12 get here? Yes

Just curious, what result did c1ccc(CNc2ncnc3nc[nH]c23)cc1 get here? No

Just curious, what result did CC1=CC(O)CC(C)(C)C1 (centres undefined) get here? No

Just curious, what result did O=C(NC1CCN(CCc2c[nH]c3ccccc23)CC1)c1ccccc1 get here? No

Just curious, what result did CCCc1nn(C)c2c(=O)[nH]c(-c3cc(S(=O)(=O)N4CCN(C)CC4)ccc3OCC)nc12 get here? No

Just curious, what result did CC12CCCC=C1C(=O)OC2=O (centres undefined) get here? No

Just curious, what result did COc1ccccc1OC(=O)Oc1ccccc1OC get here? No

Just curious, what result did CC(C)SCc1ccco1 get here? No

Just curious, what result did ICCc1ccccc1 get here? No

Just curious, what result did CCCCCCCC/C=C/C(=O)O get here? No

Just curious, what result did C[C@@H]1C[C@H]2[C@@H]3CCC4=CC(=O)C=C[C@]4(C)[C@@]3(F)[C@@H](O)C[C@]2(C)[C@H]1C(=O)CO get here? No

Just curious, what result did OCCNCc1ccccc1 get here? No

Just curious, what result did C#C[C@]1(OC(C)=O)CC[C@H]2[C@@H]3CCC4=C[C@@H](OC(C)=O)CC[C@@H]4[C@H]3CC[C@@]21C get here? No

Just curious, what result did C=CC(=O)OCCOC(=O)CCC(=O)O get here? No

Just curious, what result did CC(=O)[C@H]1CC[C@H]2[C@@H]3C[C@H](C)C4=CC(=O)CC[C@]4(C)[C@H]3[C@@H](O)C[C@]12C get here? No

Just curious, what result did C=CC(C)(C)O get here? No

* * *

target: Muscarinic acetylcholine receptor M1 (Homo sapiens); experiment: Cholinergic receptor muscarinic 1 (CHRM1) small molecule antagonists, cell-based qHTS assay (AID 1963588); settings: CHRM1-CHO antagonist mode, calcium flux fluorescence; series mostly up to 61.5 µM; also: nearly all actives have a fitted effect of over 40% in size
Records with an inconclusive call do not appear. Active and inactive are the calls of the source. Calls come from the whole dose curve.
Log the outcome using a class from true for active, false for inactive

Just curious, what result did CC(C)C(=O)OCc1cccc(OC(=O)[C@@H]2N3C(=O)[C@@H](NC(=O)Cc4ccccc4)[C@H]3SC2(C)C)c1 get here? false

Just curious, what result did CCCCCCCCN get here? false

Just curious, what result did CCN(CC)C(=O)/C(C#N)=C/c1cc(O)c(O)c([N+](=O)[O-])c1 get here? false

Just curious, what result did CS(=O)(=O)c1ccc([C@@H](C[C@H]2CCC(=O)C2)C(=O)Nc2cnccn2)cc1Cl get here? false

Just curious, what result did CC(C)=CCC[C@@](C)(O)[C@H]1CC=C(C)CC1 get here? false

Just curious, what result did O=C(O)Cc1cn(-c2ccccc2)nc1-c1ccc(Cl)cc1 get here? false

Just curious, what result did CCN(CCCCOC(=O)c1ccc(OC)c(OC)c1)C(C)Cc1ccc(OC)cc1 (stereo not drawn) get here? true

Just curious, what result did C=C(C)CCCC get here? false

Just curious, what result did FC(F)(F)c1ccc(Cl)cc1Cl get here? false

Just curious, what result did Nc1ccccc1O get here? false

Just curious, what result did Nc1cc(S(=O)(=O)O)ccc1O get here? false

Just curious, what result did C=CC(C)C#N (stereo not drawn) get here? false

Just curious, what result did C=CCN1CCc2nc(N)sc2CC1 get here? false

Just curious, what result did Cc1cc(C)n(CO)n1 get here? false

Just curious, what result did CCCCCCCCCOC(=O)c1ccc(O)cc1 get here? false

Just curious, what result did CCCCCCCCCCCCCCCC/C=C/C1CC(=O)OC1=O (stereo not drawn) get here? false

Just curious, what result did COc1ccccc1NC(=O)c1cc2ccccc2cc1O get here? false

Just curious, what result did O=C(O)c1c(O)c(-c2ccccc2)nc2ccccc12 get here? false

Just curious, what result did Cc1cc2c(cc1S(N)(=O)=O)S(=O)(=O)CCC2 get here? false

Just curious, what result did CC(=O)O[C@H]1CC[C@@]2(C)C(=CC[C@@H]3[C@@H]2CC[C@]2(C)C(C(C)=O)=CC[C@@H]32)C1 get here? false

Just curious, what result did CC(NC(CCc1ccccc1)C(=O)O)C(=O)N1C(=O)N(C)CC1C(=O)O (stereo not drawn) get here? false

Just curious, what result did c1ccc2c(CC3=NCCN3)cccc2c1 get here? false

Just curious, what result did CCCCCCOC(=O)CCC get here? false

Just curious, what result did CCCCCCOC(=O)CCCCC(=O)OCCCCCC get here? false

Just curious, what result did C[C@H](CCC(=O)NCC(=O)O)[C@H]1CC[C@H]2[C@@H]3[C@H](O)C[C@@H]4C[C@H](O)CC[C@]4(C)[C@H]3C[C@H](O)[C@]12C get here? false

Just curious, what result did O=C1CCCCCCCCCCCCCC1 get here? false

Just curious, what result did CC(C)CCCCCCOC(=O)CCCCC(=O)OCCCCCCC(C)C get here? false

Just curious, what result did O=C(C(Cl)Cl)N1CCOC12CCCCC2 get here? false

Just curious, what result did Cc1c(N=C=O)cccc1N=C=O get here? false

Just curious, what result did [Cl][Pt-2]([Cl])([Cl])[Cl] get here? false

Just curious, what result did COC(=O)[C@H]1[C@H]2C[C@@H]3c4[nH]c5cc(OC)ccc5c4CCN3C[C@H]2C[C@@H](OC(=O)COc2ccc(OC)cc2)[C@@H]1OC get here? false

Just curious, what result did CCN1CCCC1CN (stereo not drawn) get here? false

Just curious, what result did CCCCCCCCCCn1cc[n+](CCCCCCCCCC)c1C get here? true

Just curious, what result did c1ccc(CCNc2nc(-c3ccccc3)cs2)cc1 get here? false

Just curious, what result did Nc1cc(Cl)c(O)c(Cl)c1 get here? false

Just curious, what result did O=[N+]([O-])c1cccc(S(=O)(=O)NCCNS(=O)(=O)c2cccc([N+](=O)[O-])c2)c1 get here? false

Just curious, what result did COc1ccc(C(=O)N2CCN(CC(=O)N3CCOCC3)CC2)cc1 get here? false

Just curious, what result did C1=CCCC1 get here? false

* * *

target: Muscarinic acetylcholine receptor M1 (Homo sapiens) (UniProt P11229); test: Cholinergic receptor muscarinic 1 (CHRM1) small molecule antagonists, cell-based qHTS assay (AID 1963588); details: CHRM1-CHO antagonist mode, calcium flux fluorescence; series mostly up to 61.5 µM; also: nearly all actives have a fitted effect of over 40% in size
Sequence (P11229 whole entry, looked up): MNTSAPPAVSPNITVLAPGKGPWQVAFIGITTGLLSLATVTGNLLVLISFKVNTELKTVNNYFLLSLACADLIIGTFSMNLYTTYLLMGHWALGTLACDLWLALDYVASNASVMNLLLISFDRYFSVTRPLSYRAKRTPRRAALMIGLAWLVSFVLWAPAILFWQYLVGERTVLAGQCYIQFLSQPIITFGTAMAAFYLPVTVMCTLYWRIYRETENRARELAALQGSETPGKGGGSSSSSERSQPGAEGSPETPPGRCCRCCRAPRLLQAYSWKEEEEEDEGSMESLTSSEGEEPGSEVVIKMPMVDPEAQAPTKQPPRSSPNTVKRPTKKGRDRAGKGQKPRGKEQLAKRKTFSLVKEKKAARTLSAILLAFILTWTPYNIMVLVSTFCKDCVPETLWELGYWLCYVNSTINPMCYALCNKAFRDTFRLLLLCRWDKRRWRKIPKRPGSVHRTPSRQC
Records with an inconclusive call do not appear. Calls of active or inactive are those of the source. Calls follow the shape of the full dose curve.
Log the outcome using a class from label 1 = active, label 0 = inactive

Just curious, what result did c1ccc(CN(CC2=NCCN2)c2ccccc2)cc1 get here? label 0

Just curious, what result did C/C(=N/NC(=O)c1ccncc1)C(=O)O get here? label 0

Just curious, what result did COc1ccc(Nc2ccc(OC)cc2)cc1 get here? label 0

Just curious, what result did CCCCC/C=C\CCC=O get here? label 0

Just curious, what result did CCO[Si](CCCCl)(OCC)OCC get here? label 0

Just curious, what result did Cc1cc(NC(=O)C2=C(O)c3ccccc3S(=O)(=O)N2C)no1 get here? label 0

Just curious, what result did CN1CCOC(c2ccccc2)c2ccccc2C1 (stereo not given) get here? label 0

Just curious, what result did CCCCCCCCCCCC[N+](C)(C)CC(=O)[O-] get here? label 0

Just curious, what result did COC(=O)C(C)(C)C get here? label 0

Just curious, what result did COc1ccc(C)cc1[N+](=O)[O-] get here? label 0

Just curious, what result did C[Si](C)(CCCN)O[Si](C)(C)CCCN get here? label 0

Just curious, what result did CCN(CC)CCNC(=O)c1cc(Br)c(N)cc1OC get here? label 0

Just curious, what result did CCn1ccnc1CC1COc2ccccc2O1 (stereo not given) get here? label 0

Just curious, what result did C=CCOc1c(Br)cc(Br)cc1Br get here? label 0

Just curious, what result did C=CC(C)(CCC=C(C)C)OC(=O)C(C)C (stereo not given) get here? label 0

Just curious, what result did CCCCCCCCN(C)CCCCCCCC get here? label 0

Just curious, what result did C#CC(C)N(C)C(=O)Nc1ccc(Cl)cc1 (stereo not given) get here? label 0

Just curious, what result did CCCCCCCCCCCCCCCCC(=O)O get here? label 0

Just curious, what result did CCCCCCCC/C=C\CCCCCCCCN get here? label 0

Just curious, what result did C=CCOc1c(Br)cc(C(C)(C)c2cc(Br)c(OCC=C)c(Br)c2)cc1Br get here? label 0

Just curious, what result did CCCCCCCC[Si](OCC)(OCC)OCC get here? label 0

Just curious, what result did CCCCC(CC)COC(=O)COc1ccc(Cl)cc1C (stereo not given) get here? label 0

Just curious, what result did COC(=O)C1=C(C)NC(C)=C(C(=O)OC(C)(C)CN(C)CCC(c2ccccc2)c2ccccc2)C1c1cccc([N+](=O)[O-])c1 (stereo not given) get here? label 1

Just curious, what result did COC(C)OC get here? label 0

Just curious, what result did CCCC(=O)OC(=O)CCC get here? label 0

Just curious, what result did COC(=O)CCCCC(CCSS/C(CCO)=C(\C)N(C=O)Cc1cnc(C)nc1N)SC(C)=O (stereo not given) get here? label 0

Just curious, what result did CCCC(=O)c1cc(O)c(O)cc1O get here? label 0

Just curious, what result did CC(=O)OCC(=O)[C@@]1(O)CCC2C3CCC4=CC(=O)CC[C@]4(C)C3[C@@H](O)C[C@@]21C (stereo not given in full) get here? label 0

Just curious, what result did NCC(=O)CCC(=O)O get here? label 0

Just curious, what result did N#CC1(N)CCCCC1 get here? label 0

Just curious, what result did CCCCOc1cc(C(=O)NCCN(CC)CC)c2ccccc2n1 get here? label 0

Just curious, what result did OCCC(O)CO (stereo not given) get here? label 0

Just curious, what result did CCOC(=O)Cn1cccc1-c1nc(-c2ccc(OC)cc2)c(-c2ccc(OC)cc2)s1 get here? label 0

Just curious, what result did CCCC(C)C=O (stereo not given) get here? label 0

Just curious, what result did CC(=O)OC(C)(C)Cc1ccccc1 get here? label 0

Just curious, what result did O=C(O)c1ccccc1Cl get here? label 0

Just curious, what result did C=COCC1CCC(CO)CC1 (stereo not given) get here? label 0

Just curious, what result did CCOC(=O)[C@H](CCc1ccccc1)N[C@@H](C)C(=O)N(CC(=O)O)C1Cc2ccccc2C1 get here? label 0

Just curious, what result did CCCCCCCCCCCC(=O)N(CC)CC get here? label 0

Just curious, what result did CCN(CC)c1ccc(C(=C2C=CC(=[N+](CC)CC)C=C2)c2ccc(S(=O)(=O)O)cc2S(=O)(=O)[O-])cc1 get here? label 0

Just curious, what result did COc1cc(OC)cc(OC)c1 get here? label 0

Just curious, what result did COc1ccccc1N1CCN(CC(O)COc2cc(OC)c(OC)c(OC)c2)CC1 (stereo not given) get here? label 0

Just curious, what result did CC(C)CC(C)CC(C)CC(C)COC(=O)c1ccccc1C(=O)OCC(C)CC(C)CC(C)CC(C)C (stereo not given) get here? label 0

Just curious, what result did CCCCCCCCC1CO1 (stereo not given) get here? label 0

Just curious, what result did COCCCN1CCC(NC(=O)c2cc(Cl)c(N)c3c2OCC3)CC1 get here? label 0
